measuredOn: IL-23R (Homo sapiens, UniProt Q5VWK5)
Sequence (Q5VWK5 24-629): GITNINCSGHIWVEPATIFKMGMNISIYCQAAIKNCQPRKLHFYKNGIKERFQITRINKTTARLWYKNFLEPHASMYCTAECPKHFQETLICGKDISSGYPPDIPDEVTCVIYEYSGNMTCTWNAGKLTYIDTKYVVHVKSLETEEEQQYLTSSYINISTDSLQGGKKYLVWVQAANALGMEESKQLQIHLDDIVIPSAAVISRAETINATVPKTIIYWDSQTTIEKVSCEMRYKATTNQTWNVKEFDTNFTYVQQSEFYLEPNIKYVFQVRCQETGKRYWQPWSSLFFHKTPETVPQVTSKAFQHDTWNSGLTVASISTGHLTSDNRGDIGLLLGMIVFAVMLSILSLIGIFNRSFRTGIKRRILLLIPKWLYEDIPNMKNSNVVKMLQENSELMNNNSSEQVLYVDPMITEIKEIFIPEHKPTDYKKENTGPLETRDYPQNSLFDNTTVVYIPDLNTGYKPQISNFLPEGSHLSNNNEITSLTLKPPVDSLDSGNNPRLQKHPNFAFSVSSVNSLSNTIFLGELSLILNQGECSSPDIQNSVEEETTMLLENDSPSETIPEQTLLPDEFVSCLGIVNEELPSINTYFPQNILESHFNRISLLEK
experimentDescription: DB cells IL23R pSTAT3 cell assay (pStat3 HTRF)
Format: cell-based
conditionDescription: Table E3; DB cells, IL-23 0.5 nM, 30 minutes at 37° C.; read-out: pStat3 HTRF (IC50)
Bridge positions count the residues as written; N and C are the ends. Square brackets hold non-standard residues; d marks the D form. Peptide text beside a SMILES is read from it. Trp(7-Me) = Cc1cccc2c(C[C@H](N)C(=O)O)c[nH]c12; 2Nal = N[C@@H](Cc1ccc2ccccc2c1)C(=O)O; AEF = NCCOc1ccc(C[C@H](N)C(=O)O)cc1; Pen = CC(C)(S)[C@H](N)C(=O)O; αMeK = C[C@](N)(CCCCN)C(=O)O; Aib = CC(C)(N)C(=O)O; βAla = NCCC(=O)O

# molecule, measuredOn, IC50
data = [
    ("CC(=O)NCCCC[C@H](NC(=O)[C@](C)(CCCCN)NC(=O)[C@H](Cc1ccc2ccccc2c1)NC(=O)[C@H](Cc1ccc(OCCN)cc1)NC(=O)[C@H]1NC(=O)[C@H](CCC(N)=O)NC(=O)[C@H](Cc2c[nH]c3c(C)cccc23)NC(=O)[C@H]([C@@H](C)O)NC(=O)C(C)(C)NC(=O)[C@@H](NC(C)=O)C(C)(C)SSC1(C)C)C(=O)N[C@@H](CC(N)=O)C(=O)NCCC(N)=O [compound 240] (Ac-[Pen][Aib]T[Trp(7-Me)]Q[Pen][AEF][2Nal][αMeK]K(Ac)N[βAla]-NH2; disulfide 1-6)", "IL-23R (Homo sapiens, UniProt Q5VWK5)", "10 to 100 nM"),
]
